Where do the numbers come from? From PubChem BioAssay AID1259334.

system: B cell line, TNFa signaling counterscreen reporter; assay: TNFa signaling inhibitors in B cell line, dose response, counter-screen (AID 1259334);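 note: cells stimulated with TNFa after compound preincubation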
Activity calls are given as the source filed them. Cut-off read from the data, not from the text of the source: active = AC50 below about 11 µM.
Please reply with one of these outcomes: active, inactive

Qu. How was Cc1cnc(NC(=O)c2ccc(OCC3CCCO3)cc2)s1 (stereo not drawn) classified in this test?
Ans. active

Qu. How was O=C(Nc1nc2ccccc2s1)c1ccc(OCC2CCCO2)cc1 (stereo not drawn) classified in this test?
Ans. active

Qu. How was COC1=CC(=O)c2c(ccc3ncnc(N)c23)C1=O classified in this test?
Ans. active

Qu. How was Cn1cc(C2=C(c3cn(CCCSC(=N)N)c4ccccc34)C(=O)NC2=O)c2ccccc21 classified in this test?
Ans. active

Qu. How was Clc1ccc(C(Cn2ccnc2)OCc2ccsc2Cl)c(Cl)c1 (stereo not drawn) classified in this test?
Ans. active

Qu. How was COc1ccc2c3c([nH]c2c1)[C@H](CO)N(C(=O)Nc1ccc(F)cc1)CC31CN(Cc2cc(F)ccc2F)C1 classified in this test?
Ans. inactive

Qu. How was N#Cc1cccc(-c2ccc(C3[C@@H]4CN(C(=O)Nc5ccc(C(F)(F)F)cc5)C[C@H]3N4)cc2)c1 (stereo partly drawn) classified in this test?
Ans. active

Qu. How was CC(=O)O[C@H]1C[C@H](O[C@H]2[C@@H](O)C[C@H](O[C@H]3[C@@H](O)C[C@H](O[C@H]4CC[C@@]5(C)C(CCC6C5C[C@@H](O)[C@]5(C)[C@@H](C7=CC(=O)OC7)CC[C@]65O)C4)O[C@@H]3C)O[C@@H]2C)O[C@H](C)[C@H]1O[C@@H]1O[C@H](CO)[C@@H](O)[C@H](O)[C@H]1O (stereo partly drawn) classified in this test?
Ans. active

====

system: B cell line, TNFa signaling counterscreen reporter; assay: TNFa signaling inhibitors in B cell line, dose response, counter-screen (AID 1259334);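 note: cells stimulated with TNFa after compound preincubation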
Active and inactive are the calls of the source. Rule as the data show it: active = AC50 below about 11 µM.
Please reply with one of these outcomes: 1 (active), 0 (inactive)

Qu. How was COC(=O)C12OCC34C(CC5C(C)=C(O)C(=O)CC5(C)C3C(O)C1O)OC(=O)C(OC(=O)C=C(C)C)C24 (centres undefined) classified in this test?
Ans. 1

Qu. How was CC(C)CC#Cc1ccc([C@@H]2[C@H]3CN(C(=O)Nc4ccccc4)CCCCN3[C@H]2CO)cc1 classified in this test?
Ans. 1

Qu. How was COc1cccc(S(=O)(=O)N(C)C[C@@H]2OCc3ccccc3-c3c(n(C)c4ccccc34)C(=O)N([C@@H](C)CO)C[C@@H]2C)c1 classified in this test?
Ans. 0

Qu. How was C[C@H]1CN([C@@H](C)CO)C(=O)c2cccc(NC(=O)Nc3ccc(F)cc3)c2O[C@H]1CN(C)S(=O)(=O)c1ccc(Cl)cc1 classified in this test?
Ans. 1

Qu. How was N#C[C@@H]1[C@H](c2ccc(C#CC3CCCCC3)cc2)[C@@H](CO)N1C(=O)Nc1ccc(F)cc1 classified in this test?
Ans. 0

Qu. How was Cc1ccc2nc(C(F)(F)F)c(C#N)c(N)c2c1 classified in this test?
Ans. 1

Qu. How was CCCCCN1C=CC(=C2C(=O)c3ccccc3C2=O)C=C1 classified in this test?
Ans. 1

Qu. How was CCCCCCCCCCCCCCCC[n+]1ccccc1 classified in this test?
Ans. 1

Qu. How was O=S(c1ccccc1O)S(=O)c1ccccc1O (centres undefined) classified in this test?
Ans. 0

Qu. How was Cc1ccccc1NC(=O)c1nc(S(C)(=O)=O)ncc1Cl classified in this test?
Ans. 1

Qu. How was CC1=C(C#N)c2nc(N)c(C#N)c(C)c2/C1=C\c1ccccc1 classified in this test?
Ans. 1

Qu. How was COc1ccc(C(=O)CCN2CCc3cc(OC)c(OC)cc3C2)cc1 classified in this test?
Ans. 1

Qu. How was CC=Cc1cc2c(c(=O)o1)C(=O)C(O)C(C)O2 (centres undefined) classified in this test?
Ans. 1

Qu. How was CC(C)(C)[S@](=O)N1Cc2cc(C(=O)NCC(F)(F)F)nc(-c3cccc(-c4cccc(F)c4)c3)c2[C@@H]1CCO classified in this test?
Ans. 0
